test system: Tov-21-G; test: Primary qHTS to identify gynecologic anti-cancer compounds using libraries of approved drugs and bioactive compounds (AID 1345084); conditions: Gynecologic cancer cell panel viability, ATPlite luminescence, 48 h; series mostly up to 57.5 µM; note: nearly all actives have a fitted effect of over 55% in size
Records with an inconclusive call do not appear. The source made the active and inactive calls. Calls come from the whole dose curve; as a rule, active = well fitted cell-killing curve with a large enough effect; inconclusive = small, poorly fitted or top-dose-only effect, or effect the other way; inactive = flat fitted curve, though single readings scatter.
Labels: active, inactive

# molecule, cat
measured = [
    ("CCCCc1nc(Cl)c(CO)n1Cc1ccc(-c2ccccc2-c2nn[nH]n2)cc1", "inactive"),
    ("CC1=C(C(=O)O)N2C(=O)[C@@H](NC(=O)[C@H](N)c3ccc(O)cc3)[C@H]2SC1", "inactive"),
    ("C[n+]1c2cc(N)ccc2cc2ccc(N)cc21 (tested in a mixture with another compound)", "active"),
    ("CC1(C)O[C@@H]2C[C@H]3[C@@H]4CCC5=CC(=O)CC[C@]5(C)[C@@]4(F)[C@@H](O)C[C@]3(C)[C@]2(C(=O)CCl)O1", "inactive"),
    ("Cc1ccc(O)c2ncccc12", "inactive"),
    ("CCCC(=O)O[C@]1(C(=O)CO)CC[C@H]2[C@@H]3CCC4=CC(=O)CC[C@]4(C)[C@H]3[C@@H](O)C[C@@]21C", "inactive"),
    ("CN1CCCC(CC2c3ccccc3Sc3ccccc32)C1 (configuration not stated)", "inactive"),
    ("O=C1OC(c2ccc(O)cc2)(c2ccc(O)cc2)c2ccccc21", "inactive"),
    ("COc1ccc(OC)c(C(O)CNC(=O)CN)c1 (configuration not stated)", "inactive"),
    ("C[C@H](CCC(=O)O)[C@H]1CC[C@H]2[C@@H]3C(=O)C[C@@H]4CC(=O)CC[C@]4(C)[C@H]3CC(=O)[C@]12C", "inactive"),
    ("CCN(CC)CCNC(=O)COc1ccc(Cl)cc1", "inactive"),
    ("C#C[C@]1(OC(C)=O)CC[C@H]2[C@@H]3CCC4=C[C@@H](OC(C)=O)CC[C@@H]4[C@H]3CC[C@@]21C", "inactive"),
    ("NCCC(O)(P(=O)(O)O)P(=O)(O)O", "inactive"),
    ("c1ccc(OCc2ccc(CCCN3CCOCC3)cc2)cc1", "inactive"),
    ("Cc1c(C(N)=O)cc([N+](=O)[O-])cc1[N+](=O)[O-]", "inactive"),
    ("OCc1ccccc1O", "inactive"),
    ("CCCCCCCCCCCCCCCC[N+](C)(C)CC", "active"),
    ("CC(C)(C)NC(=O)[C@@H]1CN(Cc2cccnc2)CCN1C[C@@H](O)C[C@@H](Cc1ccccc1)C(=O)N[C@H]1c2ccccc2C[C@H]1O", "inactive"),
    ("CC(C)(Oc1ccc(Cl)cc1)C(=O)O", "inactive"),
    ("Oc1ccc(O)cc1", "inactive"),
    ("CCOc1ccc(NC(=O)CC(C)O)cc1 (configuration not stated)", "inactive"),
    ("O=c1ccc2ccccc2o1", "inactive"),
]

###

Molecular target: Glutaminase kidney isoform, mitochondrial (Homo sapiens)
Assay: qHTS for Inhibitors of Glutaminase (GLS): LOPAC Validation (AID 624146); note: nearly all actives have a fitted effect of over 60% in size
Conditions: glutaminase enzyme activity inhibition; series mostly up to 46.1 µM
Source text: Glutaminase (GLS) catalyzes the hydrolysis of glutamine into glutamate and ammonia. It plays a critical role in glutaminolysis, which is an important energy source for proliferating cells. […] The overall goal of this project is to identify small molecule inhibitors of GLS through quantitative high throughput screening (qHTS) of the MLSMR. […]
Records with an inconclusive call do not appear. Calls of active or inactive are those of the source. The call rests on the fitted dose curve; in most records, active means well fitted inhibition curve with a large enough effect; inconclusive means small, poorly fitted or top-dose-only effect; inactive means no such curve, though single readings can be large or run the other way.
Labels: class 1 for active, class 0 for inactive

# molecule, target.of.assay, cat
records = [
    ("CC(C)COC(=O)OCN1C(=O)CN(CCN2CC(=O)N(COC(=O)OCC(C)C)C(=O)C2)CC1=O", "Glutaminase kidney isoform, mitochondrial (Homo sapiens)", "class 0"),
    ("Oc1ccc(O)cc1", "Glutaminase kidney isoform, mitochondrial (Homo sapiens)", "class 1"),
    ("N[C@@H](Cc1cnc[nH]1)C(=O)O", "Glutaminase kidney isoform, mitochondrial (Homo sapiens)", "class 0"),
    ("N[C@H](CO)C(=O)O", "Glutaminase kidney isoform, mitochondrial (Homo sapiens)", "class 0"),
    ("COc1cc2c(cc1O)CC[C@@H]1[C@@H]2CC[C@]2(C)[C@@H](O)CC[C@@H]12", "Glutaminase kidney isoform, mitochondrial (Homo sapiens)", "class 1"),
    ("CN1C2CCC1CC(OC(=O)c1c[nH]c3ccccc13)C2 (configuration not stated)", "Glutaminase kidney isoform, mitochondrial (Homo sapiens)", "class 0"),
    ("CCCC1O[C@@H]2C[C@H]3[C@@H]4CCC5=CC(=O)C=C[C@]5(C)[C@H]4[C@@H](O)C[C@]3(C)[C@]2(C(=O)CO)O1 (some centres not stated)", "Glutaminase kidney isoform, mitochondrial (Homo sapiens)", "class 0"),
    ("CCC(NC(C)C)C(O)c1ccc(O)c(O)c1 (configuration not stated)", "Glutaminase kidney isoform, mitochondrial (Homo sapiens)", "class 0"),
    ("CCCn1c(=O)[nH]c(=O)c2[nH]cnc21", "Glutaminase kidney isoform, mitochondrial (Homo sapiens)", "class 0"),
    ("CNCCC(Oc1ccccc1C)c1ccccc1 (configuration not stated)", "Glutaminase kidney isoform, mitochondrial (Homo sapiens)", "class 0"),
    ("O=C(O)c1cc2cc(Cc3cccnc3)ccc2o1", "Glutaminase kidney isoform, mitochondrial (Homo sapiens)", "class 0"),
    ("Nc1cc(Cl)c(NC2=NCCN2)c(Cl)c1", "Glutaminase kidney isoform, mitochondrial (Homo sapiens)", "class 0"),
]

###

assay: qHTS of pediatric cancer cell lines to identify multiple opportunities for drug repurposing: Primary screen for control Hh wild type fibroblast cells (AID 1347106); settings: Hh wild-type fibroblast viability, CellTiter-Glo luminescence, 48 h; series mostly up to 46 µM; note: nearly all actives have a fitted effect of over 55% in size
Inconclusive results are not listed. Active and inactive are the calls of the source. The call rests on the fitted dose curve; in most records, active means well fitted cell-killing curve with a large enough effect; inconclusive means small, poorly fitted or top-dose-only effect; inactive means flat fitted curve, though single readings scatter.
Labels: active, inactive

# compound, cat
records = [
    ("C#C[C@]1(O)CC[C@H]2[C@@H]3CCc4cc(OC5CCCC5)ccc4[C@H]3CC[C@@]21C", "inactive"),
    ("Cc1c(C(C)C)c(=O)n(-c2ccccc2)n1C", "inactive"),
    ("c1ccc(CNCCNCc2ccccc2)cc1", "inactive"),
    ("c1ccc(OCc2ccc(CCCN3CCOCC3)cc2)cc1", "inactive"),
    ("Cc1c(C(N)=O)cc([N+](=O)[O-])cc1[N+](=O)[O-]", "inactive"),
    ("CCN(CC)CCOc1ccc(C(O)(Cc2ccc(Cl)cc2)c2ccc(C)cc2)cc1 (stereo not drawn)", "inactive"),
    ("C[C@H](O)C(=O)Nc1c(I)c(C(=O)NC(CO)CO)c(I)c(C(=O)NC(CO)CO)c1I", "inactive"),
    ("CC(C)(Oc1ccc(Cl)cc1)C(=O)O", "inactive"),
    ("COc1c2occc2c(OC)c2c(=O)cc(C)oc12", "inactive"),
    ("Oc1c(I)cc(Cl)c2cccnc12", "inactive"),
    ("CC1=C(C(=O)OC(C)C)C(c2cccc([N+](=O)[O-])c2)C(C(=O)OC2CN(C(c3ccccc3)c3ccccc3)C2)=C(N)N1 (stereo not drawn)", "inactive"),
    ("OC[C@H]1O[C@H](O[C@]2(CCl)O[C@H](CCl)[C@@H](O)[C@@H]2O)[C@H](O)[C@@H](O)[C@H]1Cl", "inactive"),
    ("CC1(C)O[C@@H]2C[C@H]3[C@@H]4CCC5=CC(=O)CC[C@]5(C)[C@@]4(F)[C@@H](O)C[C@]3(C)[C@]2(C(=O)CCl)O1", "inactive"),
    ("O=S1(=O)c2cccc3cccc(c23)N1CCCN1CCN(c2ccc(F)cc2)CC1", "inactive"),
    ("Cc1c(C)n(Cc2ccccc2)c2ccc(C(=O)OCCN(C)C)cc12", "inactive"),
    ("CC(C)NC[C@@H](O)COc1cccc2ccccc12", "inactive"),
    ("OC[C@H]1O[C@@H](n2cnc3c(=S)nc[nH]c32)[C@H](O)[C@@H]1O", "inactive"),
    ("CC(C)=CCC1C(=O)N(c2ccccc2)N(c2ccccc2)C1=O", "inactive"),
    ("CC/C(=C(/CC)c1ccc(O)cc1)c1ccc(O)cc1", "inactive"),
    ("NC(CO)(CO)CO", "inactive"),
    ("CCN(CC)C(=O)N1CCN(C)CC1", "inactive"),
    ("CC(C)(C)CC(C)(C)c1ccc(O)c(Cc2ccc(Cl)cc2Cl)c1", "inactive"),
    ("CCN(CCCCOC(=O)c1ccc(OC)c(OC)c1)C(C)Cc1ccc(OC)cc1 (stereo not drawn)", "inactive"),
    ("COc1cc2c(cc1OC)[C@@H]1CC(=O)[C@@H](CC(C)C)CN1CC2", "inactive"),
    ("CCCCc1nc(Cl)c(CO)n1Cc1ccc(-c2ccccc2-c2nn[nH]n2)cc1", "inactive"),
    ("COc1cc(N)c(Cl)cc1C(=O)NC1CCN(CCCOc2ccc(F)cc2)CC1OC (stereo not drawn)", "inactive"),
    ("CN(C)CC/C=C1\\c2ccccc2Sc2ccc(Cl)cc21", "inactive"),
    ("COC(=O)CCc1ccc(OCC(O)CNC(C)C)cc1 (stereo not drawn)", "inactive"),
    ("O=C1OC(c2ccc(O)cc2)(c2ccc(O)cc2)c2ccccc21", "inactive"),
    ("CN(C)C(=S)SC(=S)N(C)C", "active"),
    ("CCN(CC)C(=O)/C(C#N)=C/c1cc(O)c(O)c([N+](=O)[O-])c1", "inactive"),
    ("CCOC(=O)[C@H](CCc1ccccc1)N[C@@H](C)C(=O)N1Cc2ccccc2C[C@H]1C(=O)O", "inactive"),
    ("Clc1ccc2c(c1)CCc1cccnc1C2=C1CCNCC1", "inactive"),
    ("CN1CCN(CCCN2c3ccccc3Sc3ccc(S(=O)(=O)N(C)C)cc32)CC1", "inactive"),
    ("c1ccc(-c2ccc(C(c3ccccc3)n3ccnc3)cc2)cc1 (stereo not drawn)", "inactive"),
    ("CN(C(=O)CN(CCO)CC(=O)N(C)C(C)(C)Cc1ccccc1)C(C)(C)Cc1ccccc1", "inactive"),
    ("CCOC(=O)c1cccc(N)c1", "inactive"),
    ("COc1cccc(CCc2ccccc2OCC(CN(C)C)OC(=O)CCC(=O)O)c1 (stereo not drawn)", "inactive"),
    ("CCCSS/C(CCO)=C(\\C)N(C=O)Cc1cnc(C)nc1N", "inactive"),
    ("CC[N+](CC)(CCNC(=O)C(=O)NCC[N+](CC)(CC)Cc1ccccc1Cl)Cc1ccccc1Cl", "inactive"),
    ("C[C@]12C=CC(=O)C=C1[C@@H](F)C[C@@H]1[C@@H]2[C@@H](O)C[C@@]2(C)[C@H]1CC[C@]2(O)C(=O)CO", "inactive"),
    ("NC(=O)c1cc[n+](CC2=C(C(=O)[O-])N3C(=O)[C@@H](NC(=O)Cc4cccs4)[C@H]3SC2)cc1", "inactive"),
    ("CCCCCCCCCCCCCCCCOP(=O)([O-])OCC[N+](C)(C)C", "inactive"),
]
